- experimental.details: chemical genetic growth profiling, strain panel (AID 1159580);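 note: tested at 20 µM; growth read once vehicle control cultures reached saturation at 30 °C; lower values mean less growth of the strain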
- run.conditions: S. cerevisiae deletion strains, growth OD, locus YAL013W, strain DEP1
The campaign covered roughly 5,500 compounds. About 2,000 (36%) were called active. Inconclusive results (about 18%) are left out. Cut-off read from the data, not from the text of the source: active = normalized growth mostly below about 0.91 (no sharp cut-off); inconclusive = no clear call, values can overlap the other calls; inactive = mostly above about 0.92. This is one part of the list.
I would appreciate it if you answered using one of these outcomes: active, inactive

Input line: Given CC(C)(C)c1nccc(-c2nn(-c3ccc(F)cc3)ccc2=O)n1 , state the outcome it received in this test.
Output line: inactive

Input line: Per the records of this test, what outcome belongs to S=c1[nH]nc(SCCSc2n[nH]c(=S)s2)s1 ?
Output line: inactive

Input line: I would be grateful if you could indicate the recorded call for FC(F)(F)c1cccc(CSc2n[nH]c(=S)s2)c1 .
Output line: active

Input line: Which outcome was assigned to CCCOc1ccccc1-c1nc2n[nH]nc2c(=O)[nH]1 in this test?
Output line: inactive

Input line: Outcome? CCCCCCCCCCCC[C@H](C(=O)O)[C@@H](C)C(=O)O
Output line: inactive

Input line: Could you please tell me the result logged for Nc1ccccc1C(=O)N/N=C\c1cccc2ccccc12 in this assay?
Output line: inactive

Input line: Could you check what this test reported for NC(=S)COc1ccccc1Cl ?
Output line: inactive

Input line: Assay outcome for N=C(N)SCCc1ccc(CCSC(=N)N)cc1 : what was it?
Output line: inactive

Input line: Outcome? CCOC(=O)c1ccc2[nH]c(-c3ccccc3)cc(=O)c2c1
Output line: inactive

Input line: Record lookup: outcome of this test for CCN(CC)c1ccc(NC(=O)c2c(F)cccc2F)c(N(CC)CC)n1 ?
Output line: inactive

Input line: Per the records of this test, what outcome belongs to CC(C)=CCCC1(C)C=Cc2c(O)c3c(c(CC=C(C)C)c2O1)OC12C(CC4CC1C(C)(C)OC2(C/C=C(/C)C(=O)O)C4O)C3=O (stereo unspecified) ?
Output line: inactive

Input line: For this compound, state the assay outcome: Nc1ccc(S(=O)(=O)Nc2cnc3ccccc3n2)cc1
Output line: inactive

Input line: How was N#CC(O[C@@H]1O[C@H](CO[C@@H]2O[C@H](CO)[C@@H](O)[C@H](O)[C@H]2O)[C@@H](O)[C@H](O)[C@H]1O)c1ccccc1 (stereo partly specified) classified in this test?
Output line: inactive

Input line: For this compound, state the assay outcome: CCOC(=O)c1nc(-c2ccccc2)sc1C(=O)OCC
Output line: inactive

Input line: Dear all, I need the recorded test outcome for CC(=O)O[C@H]1CC[C@@]2(C)C(CC[C@]3(C)C2CC=C2C4CC(C)(C)CC[C@]4(C)CC[C@]23C)C1(C)C (stereo partly specified) , thank you.
Output line: inactive

Input line: Please share the test call associated with Nc1ccc(S(=O)(=O)Nc2ccnn2-c2ccccc2)cc1 .
Output line: inactive

Input line: Field: outcome | Entry: CCCC(CC(=O)O)(C(=O)O)c1ccccc1 (stereo unspecified)
Output line: inactive

Input line: Test call for this compound, please: CC(=O)O[C@H]1CC[C@@]2(C)C(CC[C@]3(C)C2C(=O)C=C2C4[C@@H](C)[C@H](C)CC[C@]4(C(=O)O)CC[C@]23C)C1(C)C (stereo partly specified)
Output line: inactive

Input line: Recorded call for O=C(O)C1CCCN(CCC=C(c2ccccc2)c2ccccc2)C1 (stereo unspecified) ?
Output line: inactive

Input line: Which outcome was entered for the compound O=[N+]([O-])c1ccccc1SCc1n[nH]c(=S)n1-c1cccc(C(F)(F)F)c1 in this test?
Output line: inactive

Input line: GET /call?item= CCCc1nc(-c2ccccn2)[nH]c(=O)c1CC1CC1 returns the recorded outcome of this test.
Output line: active
